Tested on: Jurkat
Assay text: Antiproliferative assay (resazurin, 72 h)
Type: cell-based, human
Experimental conditions: Homo sapiens, Jurkat; Table 1; mean ± SE; 72 h
Observation type: IC50 (µM)

>>> print(df.to_string())
                            compound_string  reported
0  COc1cc(Nc2cc(C)nc3nc(NCCc4ccc(Cl)cc4)nn23)cc(OC)c1OC      5.94

(A) COc1cc(Nc2cc(C)nc3nc(NCc4ccccc4)nn23)cc(OC)c1OC
(B) COc1cc(Nc2cc(C)nc3nc(NCc4cccnc4)nn23)cc(OC)c1OC
Between the entries labeled A and B , whose measured IC50 is lower? Answer by quoting the chosen item's label.
A
